molecular target: CYP2C9 (Homo sapiens (Human), UniProt P11712); assay: Cytochrome P450 activity inhibition, CYP2C9; assay type: in vitro ADME; conditions: 10 μM, human liver microsomes
Sequence (P11712 whole entry): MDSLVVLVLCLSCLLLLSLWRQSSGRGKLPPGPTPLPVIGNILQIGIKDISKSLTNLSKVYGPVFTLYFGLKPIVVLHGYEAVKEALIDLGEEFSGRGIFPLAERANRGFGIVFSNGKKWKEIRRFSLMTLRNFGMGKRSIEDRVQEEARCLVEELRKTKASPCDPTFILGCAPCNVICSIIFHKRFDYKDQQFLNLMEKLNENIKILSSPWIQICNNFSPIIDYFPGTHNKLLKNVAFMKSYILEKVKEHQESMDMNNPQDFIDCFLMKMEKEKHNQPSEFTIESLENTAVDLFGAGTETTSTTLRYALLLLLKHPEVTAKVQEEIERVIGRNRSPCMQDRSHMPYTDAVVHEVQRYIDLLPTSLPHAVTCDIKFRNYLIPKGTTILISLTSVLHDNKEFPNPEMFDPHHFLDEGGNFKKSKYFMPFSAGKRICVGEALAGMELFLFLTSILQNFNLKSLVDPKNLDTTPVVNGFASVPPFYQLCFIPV
PROPERTY_MEASURED: CYP inhibition (% of control) 2C9

OCCC/C(=C(\c1ccc(O)cc1)c1ccc(C2=CCN(C3CC3)CC2)cc1)c1ccccc1 [Compound 22j] ... 88 % of control
CN1CCCC1CCOc1ccc(/C(=C(/CCCO)c2ccccc2)c2ccc(O)cc2)cc1 (stereo not shown) [Compound 6g] ... 75.4 % of control
CCN1CCN(c2ccc(/C(=C(/CCCO)c3ccccc3)c3ccc(C)cc3)cc2)CC1 [Compound 18j] ... 87 % of control
CN(C)CCOc1ccc(/C(=C(/CCCO)c2ccccc2)c2ccc(O)cc2)cc1 [GSK5182, reference compound] ... 72.9 % of control
OCCC/C(=C(\c1ccc(O)cc1)c1ccc(OCCN2CCOCC2)cc1)c1ccccc1 [Compound 6c] ... 77.9 % of control
OCCC/C(=C(\c1ccc(O)cc1)c1ccc(OCCN2CCCC2)cc1)c1ccccc1 [Compound 6e] ... 51.6 % of control

Next compound, please.
q: Request the reported CYP inhibition (% of control) 2C9 associated with CN1CCC[C@H]1COc1ccc(/C(=C(/CCCO)c2ccccc2)c2ccc(O)cc2)cc1 [Compound 6h]
a: 62.8 % of control

----------
target: ERR alpha LBD (Homo sapiens (Human), UniProt P11474); settings: read-out: Binding Assay, IC50 ERRα
Sequence (P11474 193-421, species assumed): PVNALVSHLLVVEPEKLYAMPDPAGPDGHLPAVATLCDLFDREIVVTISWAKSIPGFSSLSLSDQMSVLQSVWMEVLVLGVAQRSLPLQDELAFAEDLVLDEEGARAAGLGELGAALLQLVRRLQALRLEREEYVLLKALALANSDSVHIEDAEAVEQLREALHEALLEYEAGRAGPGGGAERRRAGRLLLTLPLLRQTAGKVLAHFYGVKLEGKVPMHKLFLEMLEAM
PROPERTY_MEASURED: IC50

OCCC/C(=C(\c1ccc(O)cc1)c1ccc(OCCN2C[C@H]3C[C@H]3[C@H]2CO)cc1)c1ccccc1 [Compound 38d] ... > 10 µM
CN1CCN(c2ccc(/C(=C(/CCCO)c3ccccc3)c3ccc(Br)cc3)cc2)CC1 [Compound 18e] ... > 10 µM
CN1CCC[C@H]1COc1ccc(/C(=C(/CCCO)c2ccccc2)c2ccc(O)cc2)cc1 ... > 10 µM
OCCC/C(=C(\c1ccc(O)cc1)c1ccc(C2CCN(C3CCCCC3)CC2)cc1)c1ccccc1 [Compound 22p] ... 9.7 µM

q: Request the reported IC50 associated with OCCC/C(=C(\c1ccc(O)cc1)c1ccc(C2CCNCC2)cc1)c1ccccc1 [Compound 20j]
a: > 10 µM

----------
Entries and their CYP inhibition (% of control) 2D6
target: CYP2D6 (Homo sapiens (Human), UniProt P10635); assay: Cytochrome P450 activity inhibition, CYP2D6; assay type: in vitro ADME; details: 10 μM, human liver microsomes
Sequence (P10635 whole entry): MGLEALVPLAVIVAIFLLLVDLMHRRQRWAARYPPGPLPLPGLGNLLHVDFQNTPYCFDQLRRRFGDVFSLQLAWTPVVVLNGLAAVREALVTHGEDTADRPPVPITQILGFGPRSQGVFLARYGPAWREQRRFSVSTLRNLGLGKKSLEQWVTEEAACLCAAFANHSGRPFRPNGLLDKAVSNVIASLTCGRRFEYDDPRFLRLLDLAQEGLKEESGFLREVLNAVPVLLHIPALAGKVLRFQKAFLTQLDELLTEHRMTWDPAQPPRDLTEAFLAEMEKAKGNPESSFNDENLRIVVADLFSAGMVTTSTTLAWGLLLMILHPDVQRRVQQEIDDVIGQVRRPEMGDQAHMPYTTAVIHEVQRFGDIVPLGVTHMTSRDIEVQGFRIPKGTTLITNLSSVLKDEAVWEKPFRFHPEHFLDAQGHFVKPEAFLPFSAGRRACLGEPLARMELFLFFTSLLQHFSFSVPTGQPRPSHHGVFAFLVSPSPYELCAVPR

Recorded results for 4 compounds are shown here.
OCCC/C(=C(\c1ccc(O)cc1)c1ccc(OCCN2CCC3(CCNC3)C2)cc1)c1ccccc1 (centres unmarked) [Compound 39] ... 67.8 % of control
OCCC/C(=C(\c1ccc(O)cc1)c1ccc(OCCN2CCCC2)cc1)c1ccccc1 [Compound 6e] ... 80.6 % of control
CN1CCCC1CCOc1ccc(/C(=C(/CCCO)c2ccccc2)c2ccc(Br)cc2)cc1 (centres unmarked) [Compound 13d] ... >100 % of control
OCCC/C(=C(\c1ccc(O)cc1)c1ccc(OCCN2CCOCC2)cc1)c1ccccc1 [Compound 6c] ... 96.4 % of control

q: Could you share what CYP inhibition (% of control) 2D6 was measured for CN1CCC[C@H]1CCOc1ccc(/C(=C(/CCCO)c2ccccc2)c2ccc(O)cc2)cc1 [Compound 6j] , tested on CYP2D6 (Homo sapiens (Human), UniProt P10635)?
a: 85.2 % of control

----------
format: in vitro ADME; settings: PBS pH 7.4, 25° C., 5 hours
PROPERTY_MEASURED: Permeability Pampa

q: Request the reported Permeability Pampa associated with Nc1ccc(/C(=C(\CCCO)c2ccccc2)c2ccc(C3CCN(C4CC4)CC3)cc2)cc1 [Compound 26d]
a: 1.04 10^−6 cm/s

q: Request the reported Permeability Pampa associated with OCCC/C(=C(\c1ccc(O)cc1)c1ccc(C2CCN(C3CCCCC3)CC2)cc1)c1ccccc1 [Compound 22p]
a: 0.2 10^−6 cm/s

q: Request the reported Permeability Pampa associated with CN1CCN(c2ccc(/C(=C(/CCCO)c3ccccc3)c3ccc(Br)cc3)cc2)CC1 [Compound 18e]
a: 1.11 10^−6 cm/s

q: Request the reported Permeability Pampa associated with C[Si](C)(CN1CCCCC1)c1ccc(/C(=C(/CCCO)c2ccccc2)c2ccc(O)cc2)cc1 [Compound 42b]
a: 0.1 10^−6 cm/s

----------
biological target: UniProtKB P33261; assay: Cytochrome P450 activity inhibition, CYP2C19; assay type: in vitro ADME; conditions: 10 μM, human liver microsomes
Sequence (P33261 whole entry): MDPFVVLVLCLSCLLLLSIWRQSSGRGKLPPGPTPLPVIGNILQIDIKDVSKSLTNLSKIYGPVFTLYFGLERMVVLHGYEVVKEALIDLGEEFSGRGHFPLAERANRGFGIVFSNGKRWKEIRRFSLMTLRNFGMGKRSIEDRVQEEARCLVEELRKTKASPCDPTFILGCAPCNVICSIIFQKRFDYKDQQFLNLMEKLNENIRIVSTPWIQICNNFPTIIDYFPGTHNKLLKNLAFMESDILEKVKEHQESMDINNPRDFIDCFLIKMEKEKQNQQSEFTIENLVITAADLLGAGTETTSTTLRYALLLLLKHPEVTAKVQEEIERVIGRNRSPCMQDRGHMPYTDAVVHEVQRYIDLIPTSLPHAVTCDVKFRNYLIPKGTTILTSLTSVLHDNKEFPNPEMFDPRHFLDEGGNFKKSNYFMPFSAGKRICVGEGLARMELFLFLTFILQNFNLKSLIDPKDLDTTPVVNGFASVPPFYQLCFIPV
Entries and their CYP inhibition (% of control) 2C19

Recorded results for 3 compounds are shown here.
OCCC/C(=C(/c1ccc(C2CCN(C3CC3)CC2)cc1)c1cccc(O)c1)c1ccccc1 [Compound 22r] ... >100 % of control
OCCC/C(=C(\c1ccc(O)cc1)c1ccc(C2CCNCC2)cc1)c1ccccc1 [Compound 20j] ... 62 % of control
CN1CCN(c2ccc(/C(=C(/CCCO)c3ccccc3)c3ccc(Br)cc3)cc2)CC1 [Compound 18e] ... 84.6 % of control

Next compound, please.
q: Request the reported CYP inhibition (% of control) 2C19 associated with CN1CCN(c2ccc(/C(=C(/CCCO)c3ccccc3)c3ccc(N)cc3)cc2)CC1 [Compound 26a]
a: 89 % of control

----------
target: UniProt P33261; assay: Cytochrome P450 activity inhibition, CYP2C19; format: in vitro ADME; conditions: 10 μM, human liver microsomes
PROPERTY_MEASURED: CYP inhibition (% of control) 2C19

Recorded results for 5 compounds are shown here.
CN1CCCC1CCOc1ccc(/C(=C(/CCCO)c2ccccc2)c2ccc(Br)cc2)cc1 (centres unmarked) [Compound 13d] ... 89.4 % of control
CN1CCC[C@H]1COc1ccc(/C(=C(/CCCO)c2ccccc2)c2ccc(O)cc2)cc1 ... 83.2 % of control
CN1CCCC1CCOc1ccc(/C(=C(/CCCO)c2ccccc2)c2ccc(O)cc2)cc1 (centres unmarked) ... 81.8 % of control
CN1CCC[C@H]1CCOc1ccc(/C(=C(/CCCO)c2ccccc2)c2ccc(O)cc2)cc1 ... 89.1 % of control
CN1CCC[C@@H]1COc1ccc(/C(=C(/CCCO)c2ccccc2)c2ccc(O)cc2)cc1 ... 82.6 % of control

q: Request the reported CYP inhibition (% of control) 2C19 associated with CC(C)N1CCC(c2ccc(/C(=C(/CCCO)c3ccccc3)c3cccc(O)c3)cc2)CC1 [Compound 22m]
a: >100 % of control

q: Request the reported CYP inhibition (% of control) 2C19 associated with OCCC/C(=C(\c1ccc(O)cc1)c1ccc(N2CCN(C3CCCC3)CC2)cc1)c1ccccc1 [Compound 22n]
a: 83 % of control

q: Request the reported CYP inhibition (% of control) 2C19 associated with OCCC/C(=C(\c1ccc(O)cc1)c1ccc(OCCN2CCC3(CCNC3)C2)cc1)c1ccccc1 (centres unmarked)
a: 73.9 % of control

----------
target: UniProtKB P10635; assay: Cytochrome P450 activity inhibition, CYP2D6; type: in vitro ADME; details: 10 μM, human liver microsomes
PROPERTY_MEASURED: CYP inhibition (% of control) 2D6

Recorded results for 3 compounds are shown here.
CN(C)CCOc1ccc(/C(=C(/CCCO)c2ccccc2)c2ccc(O)cc2)cc1 [GSK5182, reference compound] ... 82.3 % of control
CN1CCN(c2ccc(/C(=C(/CCCO)c3ccccc3)c3ccc(N)cc3)cc2)CC1 [Compound 26a] ... 85.5 % of control
OCCC/C(=C(\c1ccc(O)cc1)c1ccc(C2CCN(C3CCCCC3)CC2)cc1)c1ccccc1 [Compound 22p] ... 79.6 % of control

Next compound, please.
q: Request the reported CYP inhibition (% of control) 2D6 associated with OCCC/C(=C(/c1ccc(C2=CCN(C3CC3)CC2)cc1)c1cccc(O)c1)c1ccccc1 [Compound 22l]
a: 99 % of control

----------
target: UniProt:P08684; assay: Cytochrome P450 activity inhibition, CYP3A4; format: in vitro ADME; conditions: 10 μM, human liver microsomes
Sequence (P08684 whole entry): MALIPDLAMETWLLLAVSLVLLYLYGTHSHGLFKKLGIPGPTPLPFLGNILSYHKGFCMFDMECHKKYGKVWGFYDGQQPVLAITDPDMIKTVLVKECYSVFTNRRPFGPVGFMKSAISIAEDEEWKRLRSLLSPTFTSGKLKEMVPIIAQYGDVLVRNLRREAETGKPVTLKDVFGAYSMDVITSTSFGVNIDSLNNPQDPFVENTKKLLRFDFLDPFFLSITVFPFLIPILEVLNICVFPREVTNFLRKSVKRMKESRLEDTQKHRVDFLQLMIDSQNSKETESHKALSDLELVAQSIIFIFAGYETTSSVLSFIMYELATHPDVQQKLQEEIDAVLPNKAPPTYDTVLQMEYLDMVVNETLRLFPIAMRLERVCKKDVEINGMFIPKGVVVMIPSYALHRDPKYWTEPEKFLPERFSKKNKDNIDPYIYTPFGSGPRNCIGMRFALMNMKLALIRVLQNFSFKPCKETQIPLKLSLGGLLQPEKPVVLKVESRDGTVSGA
PROPERTY_MEASURED: CYP inhibition (% of control) 3A4

CN1CCC[C@H]1COc1ccc(/C(=C(/CCCO)c2ccccc2)c2ccc(O)cc2)cc1 ... 75.4 % of control
CC(C)(C)OC(=O)N1CC(c2ccc(/C(=C(/CCCO)c3ccccc3)c3ccc(O)cc3)cc2)C1 [Compound 18t] ... 106 % of control
OCCC/C(=C(\c1ccc(O)cc1)c1ccc(OCCN2C[C@H]3C[C@H]3[C@H]2CO)cc1)c1ccccc1 [Compound 38d] ... 57.6 % of control

q: Could you share what CYP inhibition (% of control) 3A4 was measured for "CN1CCC[C@H]1CCOc1ccc(/C(=C(/CCCO)c2ccccc2)c2ccc(O)cc2)cc1" , tested on UniProt:P08684?
a: 74.6 % of control

q: Could you share what CYP inhibition (% of control) 3A4 was measured for "CN1CCC[C@@H]1COc1ccc(/C(=C(/CCCO)c2ccccc2)c2ccc(O)cc2)cc1" , tested on UniProt:P08684?
a: 79.4 % of control

q: Could you share what CYP inhibition (% of control) 3A4 was measured for OCCC/C(=C(\c1ccc(O)cc1)c1ccc(OCCN2CCC3(CCNC3)C2)cc1)c1ccccc1 (stereo not drawn) , tested on UniProt:P08684?
a: 59 % of control

q: Could you share what CYP inhibition (% of control) 3A4 was measured for OCCC/C(=C(\c1ccc(O)cc1)c1ccc(C2=CCN(C3CC3)CC2)cc1)c1ccccc1 [Compound 22j] , tested on UniProt:P08684?
a: 85 % of control

q: Could you share what CYP inhibition (% of control) 3A4 was measured for CN1CCN(c2ccc(/C(=C(/CCCO)c3ccccc3)c3ccc(N)cc3)cc2)CC1 [Compound 26a] , tested on UniProt:P08684?
a: 75.4 % of control

q: Could you share what CYP inhibition (% of control) 3A4 was measured for CN(C)CCOc1ccc(/C(=C(/CCCO)c2ccccc2)c2ccc(O)cc2)cc1 [GSK5182, reference compound] , tested on UniProt:P08684?
a: 83 % of control
